As shown below, each of these compounds has a reported log10 of Cmax value.
- procedure-summary: Cmax in CD1 mouse lung at 40 mg/kg, po administered as single dose
- Assay type: ADME, organism-based
- Design: dose 40 mg/kg, route oral
assay-readout: log10 of Cmax (log10 of the value in ng/mL)

smiles: O=[N+]([O-])c1cn2c(n1)OC[C@@H](OCc1ccc(-c3ccc(OC(F)(F)F)cc3)nn1)C2
log10 of Cmax: 3.85
--
smiles: O=[N+]([O-])c1cn2c(n1)OC[C@@H](OCc1ccc(-c3ccc(OC(F)(F)F)cc3)cc1)C2
log10 of Cmax: 3.95
--
smiles: O=[N+]([O-])c1cn2c(n1)OC[C@@H](OCc1ccc(-c3ccc(OC(F)(F)F)c(Cl)c3)nc1)C2
log10 of Cmax: 4.00
--
smiles: O=[N+]([O-])c1cn2c(n1)OC[C@@H](OCc1ccc(-c3ccc(C(F)(F)F)nc3)cc1)C2
log10 of Cmax: 5.57
--
smiles: O=[N+]([O-])c1cn2c(n1)OC[C@@H](OCc1cnc(-c3ccc(OC(F)(F)F)cc3)nc1)C2
log10 of Cmax: 3.60
--
smiles: O=[N+]([O-])c1cn2c(n1)OC[C@@H](OCc1ccc(-c3ccc(F)cc3)nc1)C2
log10 of Cmax: 4.04
--
smiles: O=[N+]([O-])c1cn2c(n1)OC[C@@H](OCc1ccc(-c3ccc(C(F)(F)F)cn3)cc1)C2
log10 of Cmax: 4.53
--
smiles: O=[N+]([O-])c1cn2c(n1)OC[C@@H](OCc1ccc(-c3ccc(OC(F)(F)F)c(F)c3)nc1)C2
log10 of Cmax: 4.08
--
smiles: O=[N+]([O-])c1cn2c(n1)OC[C@@H](OCc1cnc(-c3ccc(OC(F)(F)F)cc3)cn1)C2
log10 of Cmax: 4.36
--
smiles: O=[N+]([O-])c1cn2c(n1)OC[C@@H](OCc1ccc(-c3ccc(OC(F)(F)F)c(F)c3)cn1)C2
log10 of Cmax: 3.96
--
smiles: O=[N+]([O-])c1cn2c(n1)OC[C@@H](OCc1ccc(-c3ccc(OC(F)(F)F)cc3)nc1)C2
log10 of Cmax: 4.26
--
smiles: O=[N+]([O-])c1cn2c(n1)OC[C@@H](OCc1ccc(-c3ccc(OC(F)(F)F)cc3)cn1)C2
log10 of Cmax: 4.54
